The reported numbers originate from ChEMBL document CHEMBL3232832.

Assay: Ratio of drug uptake in cortex to cerebellum in mouse
Format: ADME, organism-based
Conditions: in vivo
Reported Ratio values follow for various molecules
Just the number, please, no unit attached.

Example results:
query: Return reported Ratio; argument: "[11CH3]c1ccc(OC(=O)N2CCN3CCC2CC3)cc1"
result: 0.6

query: Return reported Ratio; argument: [11CH3]N1CC2CN(c3ccc(-c4ccccc4)nn3)CC2C1 (stereo not given)
result: 0.2

query: Return reported Ratio; argument: "[18F]c1ccc(-c2nnc(N3CCN4CCC3CC4)o2)cc1"
result: 0.4

More entries:
query: Return reported Ratio; argument: O=[11C](Nc1ccc(Br)cc1)OC1CN2CCC1CC2 (stereo not given)
result: 0.3

query: Return reported Ratio; argument: [18F]c1ccccc1-c1cnc2c(c1)CC1(CN3CCC1CC3)O2 (stereo not given)
result: 0.8

----------
Target: Neuronal acetylcholine receptor subunit alpha-7 (Homo sapiens)
Sequence (P36544 whole entry): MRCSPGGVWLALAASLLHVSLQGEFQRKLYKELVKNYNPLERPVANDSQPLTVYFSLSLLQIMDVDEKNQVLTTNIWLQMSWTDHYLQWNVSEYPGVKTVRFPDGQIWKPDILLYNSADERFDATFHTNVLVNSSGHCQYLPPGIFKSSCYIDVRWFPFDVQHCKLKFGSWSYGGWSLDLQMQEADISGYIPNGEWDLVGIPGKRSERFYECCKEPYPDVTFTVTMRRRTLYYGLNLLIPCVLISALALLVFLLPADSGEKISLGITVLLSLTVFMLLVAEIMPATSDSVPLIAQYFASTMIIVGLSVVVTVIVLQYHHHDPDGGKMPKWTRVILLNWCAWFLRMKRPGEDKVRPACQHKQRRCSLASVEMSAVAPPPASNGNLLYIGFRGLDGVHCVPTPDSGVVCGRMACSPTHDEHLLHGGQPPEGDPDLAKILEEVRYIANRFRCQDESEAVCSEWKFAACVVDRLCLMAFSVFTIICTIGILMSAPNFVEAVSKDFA
Assay: Binding affinity to alpha7 nAChR (unknown origin)
Readout: pKi
Reminder that pKi means the negative base-10 logarithm of the concentration expressed in mol/L.

query: Return reported pKi; argument: [11CH3]N1CC2CN(c3ccc(-c4ccc5[nH]ccc5c4)nn3)CC2C1 (stereo not drawn)
result: 9.62

query: Return reported pKi; argument: "[18F]c1ccc(-c2nnc(N3CCN4CCC3CC4)o2)cc1"
result: 7.94

Okay, now this compound:
query: Return reported pKi; argument: "CN1C[C@H]2CN(c3ccc4c(c3)C(=O)c3cc(N5C[C@@H]6CN([11CH3])[C@@H]6C5)ccc3-4)C[C@H]21"
result: 10.04
